- SYSTEM TESTED: T1, human AXL with a cynomolgus monkey extracellular domain (ECD) (Homo sapiens, UniProt P30530, P441T/S191N/S285L/T105A/T112A/T125N/T443A)
- T1 construct: aa 1-447); expressed in transfected cells; host or cells: HEK293T
- T1 sequence (P30530 26-894 T105A/T112A/T125N/S191N/S285L/P441T/T443A): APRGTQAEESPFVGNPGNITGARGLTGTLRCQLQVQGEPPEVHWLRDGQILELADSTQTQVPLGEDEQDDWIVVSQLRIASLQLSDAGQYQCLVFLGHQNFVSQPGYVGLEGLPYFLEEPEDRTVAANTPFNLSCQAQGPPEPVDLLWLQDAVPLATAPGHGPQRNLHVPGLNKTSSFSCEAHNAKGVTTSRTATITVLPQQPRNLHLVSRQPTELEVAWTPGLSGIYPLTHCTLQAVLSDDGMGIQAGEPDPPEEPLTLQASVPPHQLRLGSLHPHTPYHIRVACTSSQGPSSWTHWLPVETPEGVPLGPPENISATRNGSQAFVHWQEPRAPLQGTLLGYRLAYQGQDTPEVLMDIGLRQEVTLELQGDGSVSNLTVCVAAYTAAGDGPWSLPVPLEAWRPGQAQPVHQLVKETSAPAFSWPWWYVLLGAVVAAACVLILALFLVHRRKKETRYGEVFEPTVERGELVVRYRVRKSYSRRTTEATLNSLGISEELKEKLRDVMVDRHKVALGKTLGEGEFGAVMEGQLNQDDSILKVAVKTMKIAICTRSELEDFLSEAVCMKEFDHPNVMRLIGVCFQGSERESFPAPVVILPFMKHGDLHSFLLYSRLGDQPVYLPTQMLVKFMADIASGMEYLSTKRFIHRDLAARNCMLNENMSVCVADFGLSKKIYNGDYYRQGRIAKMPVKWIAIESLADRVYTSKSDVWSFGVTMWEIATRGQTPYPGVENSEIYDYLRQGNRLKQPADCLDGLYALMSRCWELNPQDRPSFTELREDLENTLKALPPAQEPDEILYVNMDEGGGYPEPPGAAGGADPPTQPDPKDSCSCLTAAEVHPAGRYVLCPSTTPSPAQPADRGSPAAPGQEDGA
- ASSAY EXPLANATION: Flow cytometry binding to HEK293T cells transfected with human AXL with cynomolgus ECD
- TEST CONDITIONS: at least 3 experiments
MEASURE NAME: Binding EC50 cynomolgus AXL Average (s.d.)

Query: Can you look up the measured Binding EC50 cynomolgus AXL Average (s.d.) of IgG1-AXL-726: human IgG1,κ anti-AXL antibody, VH SEQ ID NO:31, VL SEQ ID NO:33; FN2 domain binding (antibody, V domains shown, homo sapiens) VH: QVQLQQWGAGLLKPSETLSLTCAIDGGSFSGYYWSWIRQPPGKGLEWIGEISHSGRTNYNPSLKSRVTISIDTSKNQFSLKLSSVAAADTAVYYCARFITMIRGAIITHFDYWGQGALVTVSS VL: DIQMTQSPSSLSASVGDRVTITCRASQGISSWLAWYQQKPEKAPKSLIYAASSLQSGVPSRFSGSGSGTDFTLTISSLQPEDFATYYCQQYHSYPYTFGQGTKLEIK for me?
Response: 0.349 (0.160) μg/mL
